For reference, the following pIC50 results for Cytochrome P450 2C9 (Homo sapiens) were taken from various sources.
pIC50: −log10 of the molar value.
observedProperty: pIC50

INSERT INTO results (compound, measuredon, relationqualifier, datavalue) VALUES
  ('CC(C)S(=O)(=O)NC1Cc2ccc(-c3cccnc3)cc2C1 (stereo unspecified)', 'Cytochrome P450 2C9 (Homo sapiens)', '<', 5.00),
  ('Cc1cccc(C)c1COc1cccn2c(C)c(C)nc12', 'Cytochrome P450 2C9 (Homo sapiens)', '=', 4.80),
  ('Cc1c(C#N)c(N)nc2c3c(sc12)NC(=O)CC3c1ccccc1Cl (stereo unspecified)', 'Cytochrome P450 2C9 (Homo sapiens)', '=', 5.90),
  ('CCc1ccc(CC(=O)NCC2COc3ccccc3O2)cc1 (stereo unspecified)', 'Cytochrome P450 2C9 (Homo sapiens)', '=', 5.46),
  ('O=C(NOCCO)c1oc2ccncc2c1Nc1ccc(I)cc1F', 'Cytochrome P450 2C9 (Homo sapiens)', '<', 5.00),
  ('COc1ncc2cc1NS(=O)(=O)c1cccc(c1)C(=O)NCc1cncc(c1)-c1cnc3ccc-2cn13', 'Cytochrome P450 2C9 (Homo sapiens)', '<', 4.52);
